B1: TPR 5TU (parent)
chain: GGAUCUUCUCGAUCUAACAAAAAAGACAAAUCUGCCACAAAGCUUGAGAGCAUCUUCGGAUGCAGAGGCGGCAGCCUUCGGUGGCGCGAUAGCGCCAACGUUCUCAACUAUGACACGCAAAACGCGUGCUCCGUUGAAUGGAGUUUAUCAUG

- Variants of: B1
- procedure.text: polymerase ribozyme fitness, log enrichment relative to wild type (log ratio); higher = more active; in vitro selection for triplet polymerase activity
Variants at the floor of the assay were thinned out.
quantity.kind: polymerase ribozyme fitness (log ratio)

The measured polymerase ribozyme fitness (log ratio) associated with C5G C8A C27U A49C U56A G94A C95G U109G reads ≤ -4.2

polymerase ribozyme fitness (log ratio) measured on C27A C85A = ≤ -4.2

Consider A23C U44G A47U A91U A122U . Its measured polymerase ribozyme fitness (log ratio) is ≤ -4.2

Entry G46U G59A G74A G84C U104C G112C U134G U145A , polymerase ribozyme fitness (log ratio) reported as ≤ -4.2

The reported value for A23U A49C U61G C87A in terms of polymerase ribozyme fitness (log ratio) is ≤ -4.2

Reported polymerase ribozyme fitness (log ratio) of A39G U55A C75G C87U A89U C99U C116U A142U : ≤ -4.2

Summary for this variant, G46A A97U U109G A121G U135C : polymerase ribozyme fitness (log ratio) is ≤ -4.2

polymerase ribozyme fitness (log ratio) measured on U4C U7C A17U A41C G68C U78A C99A C103G = ≤ -4.2

Reported polymerase ribozyme fitness (log ratio) of G68A G81A C95A A150C G152A : ≤ -4.2

// field: polymerase ribozyme fitness (log ratio); key: A17G A24U A37C A41U G84A U101C C105A U111G C118U ; value = ≤ -4.2

Consider C5G C36A G58A A73G C85U . Its measured polymerase ribozyme fitness (log ratio) is ≤ -4.2

polymerase ribozyme fitness (log ratio) measured on U6A A19G C38G U61A G94C C103G = ≤ -4.2

Lab note: C105A C129G gave polymerase ribozyme fitness (log ratio) of ≤ -4.2

Measured polymerase ribozyme fitness (log ratio) of A91U A106C C125A : ≤ -4.2

polymerase ribozyme fitness (log ratio) in this record for U82G A91U A110U G117A : ≤ -4.2

Looking up C93A C132G A138C G140U G141C , I found its polymerase ribozyme fitness (log ratio) recorded as ≤ -4.2

The recorded polymerase ribozyme fitness (log ratio) for entry A28U G42U G59C A64C U78C C87A equals ≤ -4.2

For record C93U C123U U127C U135C the listed polymerase ribozyme fitness (log ratio) is ≤ -4.2

Recorded polymerase ribozyme fitness (log ratio) (variant C35U G88C C103U ): ≤ -4.2

Entry A47C C105A , polymerase ribozyme fitness (log ratio) reported as -1.02

Recorded result, C8U A39G G86U U102C U111G U144C G152A , polymerase ribozyme fitness (log ratio): ≤ -4.2

polymerase ribozyme fitness (log ratio) recorded for this variant, C57A C96A , is -0.383

Lab note: C96U U102G U144A A150U gave polymerase ribozyme fitness (log ratio) of ≤ -4.2

The variant listed as U7A A26G A47G A66U G71C C131U U139G has a reported polymerase ribozyme fitness (log ratio) of ≤ -4.2

Note to self: polymerase ribozyme fitness (log ratio) recorded for A37U A49U U55A U56A U127A was ≤ -4.2

Reported polymerase ribozyme fitness (log ratio) of C79U G86A C96U C149G : ≤ -4.2

Data point: G80U A91G A110G ; polymerase ribozyme fitness (log ratio) = ≤ -4.2

response.value for A19G U55A C85A (field: polymerase ribozyme fitness (log ratio)) = -2.52

In plain terms, A41C U56A C57A A115U C116U has a documented polymerase ribozyme fitness (log ratio) of -2.62

get_value(item= A3U A41U , readout=polymerase ribozyme fitness (log ratio)) returns -1.29

Kindly note the recorded polymerase ribozyme fitness (log ratio) for U6A A37U G124A G126C , which is -2.83

These data points were gathered from the RNAGym collection of RNA variant scans (doi:10.1073/pnas.2313332121).
